These data points were gathered from paper PMC4027965.

assayProcedure: in vivo
testContext: female, athymic nude, mouse, liver, iv, 3.7 MBq (100 uCi), total radioactivity
measuredQuantity: tissue uptake at 2 h (%ID/g)
Numbers only, in %ID/g.

(Q) Tell me tissue uptake at 2 h reported for N=C(N)NCCC[C@@H]1NC(=O)[C@H](CSC2CC(=O)N(CCNC(=O)CCCC(=O)Nc3ccc(C4=NNC(c5ccccn5)=C5CCC(OCCF)CCCC45)nc3)C2=O)NC(=O)[C@@H](Cc2ccc(O)cc2)NC(=O)[C@H](CC(=O)O)NC(=O)CNC1=O (stereo partly shown) [^18F-TTM-RGD]
(A) 2.35
